ASSAY_DETAILS: qHTS Assay to Identify Small Molecule Activators of BRCA1 Expression; also: nearly all actives have a fitted effect of over 80% in size
CONDITION_CONTEXT: MCF7-BRCA1-FFLuc reporter, luminescence, 48 h; series mostly up to 46.1 µM
The campaign covered roughly 380,000 compounds. About 4,000 (1.1%) were called active. Inconclusive results (about 3%) are left out. Calls follow the shape of the dose curve; as a rule, active = well fitted activation curve with a large enough effect; inconclusive = small, poorly fitted or top-dose-only effect; inactive = no such curve, though single readings can be large or run the other way. For the sample, actives were picked, then their nearest neighbours and some compounds at random.
Would you mind answering with one of these outcomes? t for active, f for inactive

These recorded examples may help you get a feel for the data.
{"MOLECULE": "Cc1cc(C)cc(NC(=O)Cn2c(=O)c3ccccc3n3nncc23)c1", "LABEL_VALUE": "f"}
{"MOLECULE": "Cc1ccc(S(=O)(=O)n2nc(-c3ccc(Cl)cc3)nc2NCc2ccccc2)cc1", "LABEL_VALUE": "f"}
{"MOLECULE": "S=C(Nc1cccc(Cl)c1)Nc1ccc2c(c1)OCCO2", "LABEL_VALUE": "t"}

Hi team, can someone confirm the assay call for Fc1cccc(Cc2c(-c3ccc(Cl)cc3)nc3ccc(Cl)cn23)c1 ?
f

Query: recorded result category for COc1ccc(-n2c(=O)c3c(c4cc(OC)ccc4n3C)n(Cc3cccc(C)c3)c2=O)cc1 in this test
f

Hi, do you know how CCN=C1S/C(=C\c2cc(Br)ccc2OCC(=O)OCC)C(=O)N1CC came out in this test?
f

----------
ASSAY_DETAILS: qHTS Assay to Identify Small Molecule Activators of BRCA1 Expression; also: nearly all actives have a fitted effect of over 80% in size
CONDITION_CONTEXT: MCF7-BRCA1-FFLuc reporter, luminescence, 48 h; series mostly up to 46.1 µM
The campaign covered roughly 380,000 compounds. About 4,000 (1.1%) were called active. Another 3% or so got no clear call; they are omitted. Calls follow the shape of the dose curve; as a rule, active = well fitted activation curve with a large enough effect; inconclusive = small, poorly fitted or top-dose-only effect; inactive = no such curve, though single readings can be large or run the other way. The list comes from a sample in which actives are over-represented; it also holds close analogues and randomly drawn compounds.
Answer with one of the outcomes given here: active, inactive

Sample answers from the record:
{"MOLECULE": "O=C(Nc1cccc2cccnc12)c1cccc2c(Br)cccc12", "LABEL_VALUE": "inactive"}
{"MOLECULE": "COc1ccc(COCC(O)CN2CCC(C(N)=O)CC2)cc1 (stereo not drawn)", "LABEL_VALUE": "inactive"}
{"MOLECULE": "O=C(Nc1cccc2cccnc12)C(F)(F)F", "LABEL_VALUE": "inactive"}
{"MOLECULE": "CC1=C(C(=O)Nc2ccccc2)C(c2ccc(C)cc2)n2nc(SCc3ccccc3C)nc2N1 (stereo not drawn)", "LABEL_VALUE": "inactive"}
{"MOLECULE": "CN1CCN(S(=O)(=O)c2ccc(NC(=O)c3ccco3)cc2)CC1", "LABEL_VALUE": "inactive"}
{"MOLECULE": "O=C(NCCc1cccc(F)c1)C1CCCN(c2nc3ccccc3s2)C1 (stereo not drawn)", "LABEL_VALUE": "inactive"}
{"MOLECULE": "O=C(NC(Cc1c[nH]c2ccccc12)C(=O)N/N=C/c1ccc(Br)cc1)c1cccs1 (stereo not drawn)", "LABEL_VALUE": "inactive"}
{"MOLECULE": "Cn1c(=O)c2sccc2n2c(CCC(=O)NCc3ccccc3Cl)nnc12", "LABEL_VALUE": "inactive"}

Name the outcome recorded for COc1ccc(CCN2C(=O)CC(N3CCC(C(N)=O)CC3)C2=O)cc1OC (stereo not drawn) in the assay.
inactive

Check the results log: what was the call for CCOC(=O)c1c(C)[nH]c(C)c1S(=O)(=O)N1CCCC(C(=O)NCc2ccccc2Cl)C1 (stereo not drawn) ?
inactive

Assay result, entry NS(=O)(=O)c1ccc(NC(=S)N2CCCC2)cc1 — outcome?
inactive

----------
ASSAY_DETAILS: qHTS Assay to Identify Small Molecule Activators of BRCA1 Expression; also: nearly all actives have a fitted effect of over 80% in size
CONDITION_CONTEXT: MCF7-BRCA1-FFLuc reporter, luminescence, 48 h; series mostly up to 46.1 µM
The campaign covered roughly 380,000 compounds. About 4,000 (1.1%) were called active. Another 3% or so got no clear call; they are omitted. The call rests on the fitted dose curve; in most records, active means well fitted activation curve with a large enough effect; inconclusive means small, poorly fitted or top-dose-only effect; inactive means no such curve, though single readings can be large or run the other way. This excerpt belongs to a sample that is enriched for actives.
Answer with one of the outcomes active, inactive

Sample answers from the record:
{"MOLECULE": "CC(C)c1ccc(OCC(O)CN2CCN(c3ccccn3)CC2)cc1 (configuration not stated)", "LABEL_VALUE": "inactive"}
{"MOLECULE": "CCOC(=O)CC1(NC(=O)c2cc(COc3cncc(Cl)c3)on2)CCCCC1", "LABEL_VALUE": "inactive"}
{"MOLECULE": "COc1ccc(-c2ocnc2C(=O)Nc2ccc3c(c2)CCC3)cc1", "LABEL_VALUE": "inactive"}
{"MOLECULE": "COc1cccc(CNC(=O)c2n[nH]c3ccccc23)c1", "LABEL_VALUE": "active"}
{"MOLECULE": "Nc1[nH][nH]c(=O)c1N=Nc1ccc2c(c1)OCO2", "LABEL_VALUE": "active"}

Hi team, can someone confirm the assay call for COc1ccc(COC(=O)c2n[nH]c3ccccc23)cc1F ?
active

Look up the recorded call for O=C(Cc1c[nH]c2ccccc12)N/N=C/c1cccc(F)c1 in this test.
inactive

Short answer needed: outcome of this test for COc1ccc(Cl)cc1NC(=O)Cn1c(=O)c2ccccc2n2nncc12 ?
inactive

Dear colleague, could you share the recorded outcome for CS(=O)(=O)c1ccc(C(=O)NNC(=O)c2cccs2)cc1 when you have a moment?
inactive

Given COc1ccc(NC(=O)CCNS(=O)(=O)c2ccc3c(c2)CCCC(=O)N3)cc1Cl , state the outcome it received in this test.
inactive

Record lookup: outcome of this test for CC(C)CNC(=S)NNC(=O)c1nn(C)cc1Cl ?
inactive

Recorded call for CCOc1ccc(OCC)c(NS(=O)(=O)c2ccc3[nH]c(=O)ccc3c2)c1 ?
inactive

Returns: the outcome recorded for COc1ccc(NC(=O)Cn2c(=O)n(Cc3ccc(C(=O)NCc4ccccc4Cl)cc3)c(=O)c3ccccc32)cc1 in this assay.
inactive

Please indicate how the test categorized COc1ccccc1C(=O)OCc1cc(=O)n2nc(-c3cccs3)sc2n1 .
inactive

----------
ASSAY_DETAILS: qHTS Assay to Identify Small Molecule Activators of BRCA1 Expression; also: nearly all actives have a fitted effect of over 80% in size
CONDITION_CONTEXT: MCF7-BRCA1-FFLuc reporter, luminescence, 48 h; series mostly up to 46.1 µM
Out of some 380,000 compounds screened, about 4,000 (1.1%) were called active. Roughly 3% stayed inconclusive and do not appear here. Calls come from the whole dose curve; as a rule, active = well fitted activation curve with a large enough effect; inconclusive = small, poorly fitted or top-dose-only effect; inactive = no such curve, though single readings can be large or run the other way. For the sample, actives were picked, then their nearest neighbours and some compounds at random.
Just give me one of these, please: active, inactive

# count of solved cases: 2
{"COMPOUND": "Cc1cc(C)cc(NC(=O)CCS(=O)(=O)c2cc3c4c(c2)CCN4C(=O)CC3)c1", "LABEL_VALUE": "inactive"}
{"COMPOUND": "Cc1cc(/C=C2/SC(=O)N(CC(=O)N3CCCC3)C2=O)ccc1N1CCOCC1", "LABEL_VALUE": "inactive"}

Check the results log: what was the call for S=C(NCc1ccco1)Nc1ccc2c(c1)OCCO2 ?
inactive

Per the records of this test, what outcome belongs to C=CCNC(=O)c1ccccc1SCc1c(C)noc1C ?
inactive

Any idea what this test logged for O=C(Nc1ccc([N+](=O)[O-])cc1)c1cnn2c1NC(=C1CC1)C=C2C(F)F ?
inactive

Outcome logged for COc1ccc(CNc2nc(-c3ccc(Cl)cc3)nn2C(=O)c2ccccc2)cc1 in this assay:
inactive

Record lookup: outcome of this test for CCC(C)(C)NC(=O)C(c1ccccn1)N(C(=O)c1csnn1)c1ccccc1 (stereo not drawn) ?
inactive

Recorded test outcome, item CCOC(=O)c1c(C)[nH]c(C)c1S(=O)(=O)N(C)CC(=O)N1CCN(c2ccccc2)CC1
inactive

Just curious, what result did Cc1ccc2c(Cl)c(C(=O)NCCCn3ccnc3)sc2c1 get here?
inactive

----------
ASSAY_DETAILS: qHTS Assay to Identify Small Molecule Activators of BRCA1 Expression; also: nearly all actives have a fitted effect of over 80% in size
CONDITION_CONTEXT: MCF7-BRCA1-FFLuc reporter, luminescence, 48 h; series mostly up to 46.1 µM
From the text: Functionally, BRCA1 has been implicated in a wide array of cellular activities, including DNA damage repair, cell-cycle checkpoint control, growth inhibition, apoptosis, transcriptional regulation, chromatin remodeling, protein ubiquitylation, and mammary stem cell self-renewal and differentiation. […]
The whole screen tested about 380,000 compounds, of which about 4,000 (1.1%) were called active. Roughly 3% stayed inconclusive and do not appear here. Calls come from the whole dose curve; as a rule, active = well fitted activation curve with a large enough effect; inconclusive = small, poorly fitted or top-dose-only effect; inactive = no such curve, though single readings can be large or run the other way. Many of the other results were omitted from the sample, so actives are more common in it than they were.
Can you answer with just one of these options? active, inactive

Please let me know the test result on file for COc1ccccc1C(=O)NCCC(=O)NC1=NCCS1 .
inactive

Hi, sorry to bother you, what did the test record for CCOC(=O)CNc1nc(Cl)nc(Nc2ccc(OC)cc2OC)n1 ?
inactive

# lookup: test call for Cn1c(CCN2CCCCCC2)nc2cc(NC(=O)Nc3ccccc3)ccc21
active

Answer briefly: the call reported for COc1ccc(-n2c(C)nc3c(cnn3-c3ccc(F)cc3)c2=O)cc1 in this assay.
inactive

What did this assay record as the result for O=C(NCCCc1ccccc1)C(=O)c1c[nH]c2ccccc12 ?
inactive
